- tested.target: NS3 (Hepatitis C virus, UniProt A3EZJ3)
- Sequence (A3EZJ3 whole entry): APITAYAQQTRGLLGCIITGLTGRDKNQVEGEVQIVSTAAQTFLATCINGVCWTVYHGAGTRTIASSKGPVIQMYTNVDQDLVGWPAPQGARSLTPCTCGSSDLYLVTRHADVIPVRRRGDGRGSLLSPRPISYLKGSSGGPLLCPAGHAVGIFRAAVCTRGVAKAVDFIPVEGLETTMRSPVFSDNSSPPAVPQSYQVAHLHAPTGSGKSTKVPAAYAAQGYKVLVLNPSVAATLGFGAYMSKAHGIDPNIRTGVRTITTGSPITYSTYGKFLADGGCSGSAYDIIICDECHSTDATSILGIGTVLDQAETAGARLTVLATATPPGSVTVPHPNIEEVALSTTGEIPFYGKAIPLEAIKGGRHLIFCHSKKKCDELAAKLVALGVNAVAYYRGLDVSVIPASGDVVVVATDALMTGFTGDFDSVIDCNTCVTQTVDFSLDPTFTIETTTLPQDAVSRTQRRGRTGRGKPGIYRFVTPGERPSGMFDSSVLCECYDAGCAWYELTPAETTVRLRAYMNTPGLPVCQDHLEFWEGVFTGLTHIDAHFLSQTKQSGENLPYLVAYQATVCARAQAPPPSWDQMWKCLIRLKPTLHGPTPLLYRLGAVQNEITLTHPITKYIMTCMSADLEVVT
- test: Inhibitory activity evaluated in the HCV NS3 protease assay
- Set-up: species or system Hepacivirus hominis
measure: pIC50
// returns pIC50 (minus log10 of molar concentration), number only

Recorded pIC50 for O=C1OC[C@H]2O[C@@H](Oc3cc(O)c(C(=O)CCc4ccccc4)c(O)c3)[C@H](O)[C@@H](O)[C@@H]2OC(=O)c2cc(O)c(O)c(O)c2-c2c1cc(O)c(O)c2O [THONNINGIANIN B] , please?
6.10

---

- tested.target: NS3 (Hepatitis C virus, UniProt A3EZJ3)
- test: Inhibitory activity evaluated in the HCV NS3 protease activity assay
- Set-up: species or system Hepacivirus hominis
measure: pIC50
// returns pIC50 (minus log10 of molar concentration), number only

Recorded pIC50 for O=C1OC[C@H]2O[C@@H](Oc3cc(O)c4c(c3)OC(c3ccccc3)CC4=O)[C@H](O)[C@@H](O)[C@@H]2OC(=O)c2cc(O)c(O)c(O)c2-c2c1cc(O)c(O)c2O (stereo partly specified) , please?
6.52
